Target: human GSDMD (Homo sapiens)
Sequence (P57764 1-484): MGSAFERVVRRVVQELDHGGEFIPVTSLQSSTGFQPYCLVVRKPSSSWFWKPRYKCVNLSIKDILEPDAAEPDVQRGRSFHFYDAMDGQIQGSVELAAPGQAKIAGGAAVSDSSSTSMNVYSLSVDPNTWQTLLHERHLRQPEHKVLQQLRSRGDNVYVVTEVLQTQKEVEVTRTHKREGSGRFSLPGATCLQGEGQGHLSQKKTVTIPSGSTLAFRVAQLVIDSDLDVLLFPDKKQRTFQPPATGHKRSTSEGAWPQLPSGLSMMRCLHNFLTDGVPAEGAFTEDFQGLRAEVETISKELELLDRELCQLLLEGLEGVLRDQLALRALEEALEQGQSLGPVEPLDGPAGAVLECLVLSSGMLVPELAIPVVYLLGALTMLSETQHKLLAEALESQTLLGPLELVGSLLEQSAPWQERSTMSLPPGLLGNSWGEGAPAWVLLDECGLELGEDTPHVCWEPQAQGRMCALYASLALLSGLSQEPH
Assay type: biochemical
Conditions: GSDMD 0.3 μM plus caspase-11 0.15 μM; LDC7559 at up to 50 μM
Structures can show the parent of a compound that is named as a salt.
measured-attribute: Inhibition of GSDMD and caspase-11-mediated liposome leakage (in words)

Observe how each entry below is paired with its result.
compound	reported-value
Cc1ccc(S(=O)(=O)/C=C/C#N)cc1	moderately inhibited
COC(=O)/C=C/C(=O)OC [DMF, dimethyl fumarate]	hardly any activity
CN(C)C/C=C/C(=O)Nc1cc2c(Nc3ccc(F)c(Cl)c3)ncnc2cc1O[C@H]1CCOC1	hardly any activity
COc1nccnc1NS(=O)(=O)c1ccc(NC(=O)/C=C/c2ccc([N+](=O)[O-])s2)cc1 [NSA, necrosulfonamide]	moderately inhibited

Entry C=CC(=O)N1CCC[C@@H](n2nc(-c3ccc(Oc4ccccc4)cc3)c3c(N)ncnc32)C1 under human GSDMD (Homo sapiens) had Inhibition of GSDMD and caspase-11-mediated liposome leakage (in words) of hardly any activity

Cited source: paper PMC7316630
